- system-under-test: T1, human transferrin receptor (hTfR) (human, UniProt P02786 89-760)
- T1 construct: Recombinant hTfR; at pH 7.4 captured on the chip by an anti-His tag antibody, at pH 6.0 immobilized on an NTA chip, so it carries a His tag; also called human TfR; TfR1
- T1 sequence (P02786 89-760 limits assumed): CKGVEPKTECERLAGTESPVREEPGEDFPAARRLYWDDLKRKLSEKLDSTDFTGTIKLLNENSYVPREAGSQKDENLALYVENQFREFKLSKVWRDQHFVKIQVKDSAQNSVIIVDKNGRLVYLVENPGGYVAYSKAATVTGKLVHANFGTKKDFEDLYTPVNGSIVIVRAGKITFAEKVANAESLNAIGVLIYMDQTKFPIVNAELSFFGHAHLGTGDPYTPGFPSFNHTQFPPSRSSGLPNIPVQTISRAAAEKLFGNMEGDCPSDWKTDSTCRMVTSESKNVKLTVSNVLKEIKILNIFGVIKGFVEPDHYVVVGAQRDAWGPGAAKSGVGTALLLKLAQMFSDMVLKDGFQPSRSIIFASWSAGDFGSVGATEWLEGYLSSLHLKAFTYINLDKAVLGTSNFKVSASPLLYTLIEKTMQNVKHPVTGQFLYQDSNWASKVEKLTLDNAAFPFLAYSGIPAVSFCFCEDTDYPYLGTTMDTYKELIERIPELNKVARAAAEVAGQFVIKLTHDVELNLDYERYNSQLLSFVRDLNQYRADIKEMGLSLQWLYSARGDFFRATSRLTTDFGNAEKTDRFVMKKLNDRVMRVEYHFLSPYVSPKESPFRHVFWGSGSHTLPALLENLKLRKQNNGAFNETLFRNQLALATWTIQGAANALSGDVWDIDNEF
- test: SPR (Biacore T200), pH 6.0, hTfR on chip
Bridge positions count the residues as written; N and C are the ends. Square brackets hold non-standard residues; d marks the D form. Ends that are not written are not given here. NMePhe(4-COOH) = CN[C@@H](Cc1ccc(C(=O)O)cc1)C(=O)O; 3Pal(6-NH2) = Nc1ccc(C[C@H](N)C(=O)O)cn1; NMeW = CN[C@@H](Cc1c[nH]c2ccccc12)C(=O)O; NMeY = CN[C@@H](Cc1ccc(O)cc1)C(=O)O; Nva(3-Et) = CCC(CC)[C@H](N)C(=O)O; NMeF = CN[C@@H](Cc1ccccc1)C(=O)O
measurement-kind: Kd (nM)

binder | unit | test-result
{CH2CO}-AV[NMeF]V[NMeW]NYY[Nva(3-Et)]SKRY[NMeY]C (thioether N-15; not fully specified (C-terminus)) [894_0611] | nM | 66.3
{CH2CO}-AV[NMeF]V[NMeW]N[3Pal(6-NH2)]YIIKRY[NMePhe(4-COOH)]C (thioether N-15; not fully specified (C-terminus)) [894_0604] | nM | 16.7
AVXVXNYYIIKRYXC (as printed: A-V-Me3Py-V-MeW-N-Y-Y-I-I-K-R-Y-MeY-C; linker PEG4c; cyclic (ClAc-Ala1 thioether to Cys15)) [894_0615] | nM | 15.3

FYI, the data here is from patent EP4667483A1.
